assay: in vivo; details: rat, iv, 10 mg/kg
Parameter Measured: concentration at 6 h (µM)

>>> quantitative_result("NCC(=O)O")
1730

====

tested on: rat liver (previously anoxic pericentral regions); assay: cells; settings: Rattus norvegicus, read-out: half-maximal effect (trypan blue distribution time; cytoprotective effect), reflow liver perfusion
Parameter Measured: IC50 (µM)

>>> quantitative_result("NCC(=O)O")
180

The reported numbers originate from patent US5656608A.
